Hey, just so you know, these numbers are from the Immune Epitope Database (IEDB).

Measured pKd by item
measured_target: HLA-A*01:01
assay_overview: IEDB peptide-MHC binding, purified MHC/competitive/fluorescence; filed as Kd, often an IC50 or EC50 that approximates it; bounds were set here for any values at or beyond the usual limits of such assays
condition_label: source organism: Salmonella enterica subsp. enterica serovar Typhi
# pKd: negative log10 of molar concentration; output just the value

# item_sequence, pKd
records = [
    ("ASIADILTY", 6.12),
]

Proceeding to the next sequence to report its pKd.
(Q) # query: pKd of entry "LSEEANWAF"
(A) 7.37

* * *

measured_target: HLA-B*57:01
assay_overview: IEDB peptide-MHC binding, purified MHC/direct/fluorescence; filed as Kd, often an IC50 or EC50 that approximates it; bounds were set here for any values at or beyond the usual limits of such assays
condition_label: source organism: Mycobacterium tuberculosis str. Haarlem
endpoint_name: pKd
In textbook form, pKd equals minus log to base ten of the concentration in mol/L.

(Q) Look up pKd: "RAYWIHLMM"
(A) 6.78
